test: Tmax in human; type: ADME
REPORTED METRIC: Tmax (h)
Numbers only, in h.

[Q] Give a short answer stating reported Tmax for CN1CCN(C(=O)O[C@H]2c3nccnc3C(=O)N2c2ccc(Cl)cn2)CC1 .
[A] 1

----------
assay: Half-life in rat at 10 mg/kg, po; format: ADME, organism-based; conditions: in vivo
REPORTED METRIC: half-life
Write down the value, and be sure its unit follows.

[Q] Answer with the recorded half-life of CN1CCN(C2CCN(C(=O)CC3CCC4(CC3)OOC3(OO4)C4CC5CC(C4)CC3C5)CC2)CC1 (stereo unspecified) only.
[A] 2.4 h

----------
assay: Oral bioavailability in human; format: ADME, organism-based; details: in vivo
Label scheme for bioavailability: I (below 50%), II (50% to below 60%), III (60% or more)

[Q] Returns: class label. Input: Nc1ccn([C@H]2CC[C@@H](CO)O2)c(=O)n1 [ZALCITABINE]
[A] III

[Q] Please indicate the class for COC(=O)N[C@H](C(=O)N1CCC[C@H]1c1nc(-c2ccc3c(c2)O[C@@H](c2ccccc2)n2c-3cc3cc(-c4c[nH]c([C@@H]5CCCN5C(=O)[C@@H](NC(=O)OC)C(C)C)n4)ccc32)c[nH]1)C(C)C [ELBASVIR] based on its bioavailability.
[A] I

[Q] Record CC(C)[C@H](N)C(=O)OCCOCn1cnc2c(=O)[nH]c(N)nc21 [VALACYCLOVIR] — which class?
[A] II

[Q] Which bin should I file Nc1nc(Cl)nc2c1ncn2[C@@H]1O[C@H](CO)[C@@H](O)[C@@H]1F [CLOFARABINE] under?
[A] II

----------
Exercise: for every item that follows, state its recorded Drug metabolism.
experiment: Chemical stability of the compound assessed as acid-catalyzed hydrolysis by measuring rate constant; type: physicochemical
Answers are plain numbers, in L/mol/min.

Guide cases for Drug metabolism, answers given:
{"COMPOUND": "Nc1ncnc2c1ncn2[C@H]1CC[C@@H](CO)O1", "RESULT UNITS": "L/mol/min", "Drug metabolism": 35}
{"COMPOUND": "Nc1ncnc2c1ncn2[C@@H]1O[C@H](CO)C[C@H]1O [CORDYCEPIN]", "RESULT UNITS": "L/mol/min", "Drug metabolism": 0.012}
{"COMPOUND": "Nc1ncnc2c1ncn2[C@@H]1O[C@H](CO)C[C@@H]1O", "RESULT UNITS": "L/mol/min", "Drug metabolism": 0.057}

Kindly review the next compound as well.
[Q] Please report the measured Drug metabolism for Nc1ncnc2c1ncn2[C@H]1C[C@H](O)[C@@H](CO)O1
[A] 0.96

----------
Biological target: Neutrophil elastase (Homo sapiens) (UniProt P08246)
Sequence (whole entry): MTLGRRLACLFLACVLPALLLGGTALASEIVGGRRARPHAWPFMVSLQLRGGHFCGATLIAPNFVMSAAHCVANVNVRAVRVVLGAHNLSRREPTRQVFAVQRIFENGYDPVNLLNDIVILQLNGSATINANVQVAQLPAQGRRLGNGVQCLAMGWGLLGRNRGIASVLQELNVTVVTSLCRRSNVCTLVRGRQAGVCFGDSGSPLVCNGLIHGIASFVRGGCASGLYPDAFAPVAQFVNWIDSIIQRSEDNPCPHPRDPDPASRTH
Assay: Time-dependent inhibition of human leukocyte elastase assessed as observed binding constant
REPORTED METRIC: K

Field: example entries. Status: answers known.
{"MOLECULE": "CCC[C@@H](NC(=O)N1C(=O)C(CC)(CC)[C@@H]1Oc1ccc(CC(=O)O)cc1)c1ccc(C)cc1", "K": "6.2 10^5/M/s"}
{"MOLECULE": "CC[C@@H]1C(=O)N(C(=O)NCc2ccccc2)[C@H]1Oc1ccc(C(=O)O)cc1", "K": "2 10^3/M/s"}
{"MOLECULE": "CC[C@@H]1C(=O)N(C(C)=O)[C@H]1Oc1ccc(C(=O)O)cc1", "K": "6.7 10^3/M/s"}

# input for lookup
[Q] Answer with reported K of CC[C@@H]1C(=O)N(C(C)=O)[C@H]1OC(C)=O (racemic)
[A] 4 10^3/M/s

----------
test system: Plasmodium falciparum; assay: Antiplasmodial activity against Plasmodium falciparum FCB1 assessed as inhibition of parasite growth; format: functional, organism-based
REPORTED METRIC: pIC50
One number for each entry, as −log10 of the molar value.

[Q] Give the reported value of pIC50 for this record: CO[C@H]1O[C@@H]2O[C@@]3(C)CC[C@H]4[C@H](C)CC[C@@H]([C@H]1C)[C@@]24OO3
[A] 8.46

----------
test: Stability of the compound at pH 7.30 assessed as degradation half life; format: physicochemical; conditions: buffer, pH 7.3
REPORTED METRIC: half-life (h)
Answers are plain numbers, in h.

[Q] Specify measured half-life for COc1cc([C@@H]2c3cc4c(cc3[C@@H](O[C@@H]3O[C@@H]5CO[C@@H](C)O[C@H]5[C@H](O)[C@H]3O)[C@H]3COC(=O)[C@H]23)OCO4)cc(OC)c1O [ETOPOSIDE] .
[A] 27.7

----------
test: Bioavailability in dog at 1 mg/kg, iv measured after 30 mins by LC-MS/MS analysis; type: ADME, organism-based, Canis lupus familiaris; settings: in vivo
REPORTED METRIC: bioavailability (%)
Give bare numbers, in %.

{"COMPOUND STRING": "C[C@@H]1CCO[C@H]2Cn3cc(C(=O)NCc4ccc(F)cc4F)c(=O)c(O)c3C(=O)N12", "bioavailability / %": 17}

Field: next compound
[Q] Look up and state reported bioavailability for O=C(NCc1c(F)cc(F)cc1F)c1cn2c(c(O)c1=O)C(=O)N1[C@H]3CC[C@H](C3)O[C@@H]1C2
[A] 28

----------
test: Drug excretion in human urine assessed as unchanged drug excreted; format: ADME; details: read-out: Drug excretion
REPORTED METRIC: dose excreted (%)
Answers are plain numbers, in %.

[Q] Look up dose excreted of CC1(C)O[C@@H]2[C@@H](CO[C@@]3(COS(N)(=O)=O)OC(C)(C)O[C@@H]23)O1 [TOPIRAMATE] and report it.
[A] 70

----------
assay: Cmax in rat plasma at 20 mg/kg, po; format: ADME, organism-based; set-up: dose 20 mg/kg, route po
Consider the following compounds; for each one, report its Cmax.
Answers are plain numbers, in nM.

{"COMPOUND": "N#Cc1cc(-c2ccoc2)c2ccc(OCc3cccc(C4(O)CC5COC(C4)O5)n3)cc2c1 (stereo not drawn)", "RESULT UNITS": "nM", "REPORTED VALUE": 5000}
{"COMPOUND": "N#Cc1cc(-c2ccoc2)c2ccc(OCc3cccc(C4(O)CC5COC(C4)O5)c3)cc2c1 (stereo not drawn)", "RESULT UNITS": "nM", "REPORTED VALUE": 2500}

Query compound follows.
[Q] Read off the recorded Cmax for N#Cc1cc(-c2ccoc2)c2ccc(OCc3cccc(C4(O)CCOCC4)n3)cc2c1
[A] 2000

----------
Could you please report measured solubility for the items listed next?
assay: Solubility of the compound at pH 7.4; assay type: physicochemical; conditions: buffer
Answers are plain numbers, in µg/mL.

{"COMPOUND STRING": "Nc1nc2c(ncn2COCCO)c(=O)[nH]1", "REPORTED METRIC": "solubility", "REPORTED VALUE": 2500}

Now turn to the next molecule.
[Q] Please indicate solubility recorded for Nc1nc(O)c2ncn(COC(CO)CO)c2n1
[A] 2000

----------
assay: Inhibition of Acinetobacter baumannii beta-lactamase OXA-143
REPORTED METRIC: IC50 (µM)
Give bare numbers, in µM.

{"COMPOUND STRING": "C[C@]1(Cn2ccnn2)[C@H](C(=O)O)N2C(=O)C[C@H]2S1(=O)=O", "IC50 (µM)": 5.9}

As a next step, examine the molecule that follows.
[Q] Give reported IC50 value for C[C@]1(COC(=O)Cc2ccc(O)c(O)c2)[C@H](C(=O)O)N2C(=O)/C(=C/c3ccccn3)[C@H]2S1(=O)=O
[A] 0.003

----------
Exercise: state measured MFC for each of the molecules provided.
tested on: Candida albicans; test: Fungicidal activity against Candida albicans; type: functional
Numbered stars: 1 amine (or outer) side, 2 acyl side, 3 side chain; on linkers, the order of the positions; unused ones are H or OH. Bridge positions count the residues as written; N and C are the ends. Square brackets hold non-standard residues; d marks the D form. Peptide text beside a SMILES is read from it. * marks the point of attachment. Orn(4R-OH,5R-OH) = O=C([C@H](C[C@@H](O)[C@@H](O)N[*:3])N[*:1])[*:2]; Tetradecanoyl(10R,12S-Me2) = CC[C@H](C)C[C@H](C)CCCCCCCCC(=O)*; hTyr(3S-OH,4S-OH) = N[C@H](C(=O)O)[C@H](O)[C@@H](O)c1ccc(O)cc1; Gln(3R-OH) = NC(=O)C[C@@H](O)[C@H](N)C(=O)O; Pro(3S-OH) = O=C(O)[C@H]1NCC[C@@H]1O; Hyp = O=C(O)[C@@H]1C[C@@H](O)CN1
Numbers only, in µg/mL.

{"MOLECULE": "CC[C@H](C)C[C@H](C)CCCCCCCCC(=O)N[C@H]1C[C@@H](O)[C@@H](O)NC(=O)[C@@H]2[C@@H](O)CCN2C(=O)[C@H]([C@H](O)CC(N)=O)NC(=O)[C@H]([C@H](O)[C@@H](O)c2ccc(O)cc2)NC(=O)[C@@H]2C[C@@H](O)CN2C(=O)[C@H]([C@@H](C)O)NC1=O ({Tetradecanoyl(10R,12S-Me2)}-[Orn(4R-OH,5R-OH)]T[Hyp][hTyr(3S-OH,4S-OH)][Gln(3R-OH)][Pro(3S-OH)]; lactam 1-C)", "REPORTED METRIC": "MFC", "REPORTED VALUE": 0.25}

// next entry
[Q] Supply measured MFC of CC[C@H](C)C[C@H](C)CCCCCCCCC(=O)N[C@H]1C[C@@H](O)[C@@H](OCCN)NC(=O)[C@@H]2[C@@H](O)CCN2C(=O)[C@H]([C@H](O)CC(N)=O)NC(=O)[C@H]([C@H](O)[C@@H](O)c2ccc(O)cc2)NC(=O)[C@@H]2C[C@@H](O)CN2C(=O)[C@H]([C@@H](C)O)NC1=O in your reply.
[A] 0.25
